Give measured MIC for each item. Keep answers brief.
# Test system: Staphylococcus saprophyticus
# RUN DESCRIPTION: Antibacterial activity against methicillin-resistant mecA-positive Staphylococcus saprophyticus isolate TSU57 isolated from genitourinary tracts of acute cystitis patient after 24 hrs at 35 degC by agar dilution method
# Assay type: functional
# CONDITIONS: isolate TSU57, Urine
Numbers only, in µg/mL.

Sample answers from the record:
chemical_structure=CO[C@@]1(NC(=O)Cc2cccs2)C(=O)N2C(C(=O)O)=C(COC(N)=O)CS[C@@H]21 reading=16
chemical_structure=Cc1onc(-c2ccccc2)c1C(=O)N[C@@H]1C(=O)N2[C@@H]1SC(C)(C)[C@@H]2C(=O)O reading=128
chemical_structure=CC[C@H]1OC(=O)[C@H](C)[C@@H](O[C@H]2C[C@@](C)(OC)[C@@H](O)[C@H](C)O2)[C@H](C)[C@@H](O[C@@H]2O[C@H](C)C[C@H](N(C)C)[C@H]2O)[C@](C)(O)C[C@@H](C)C(=O)[C@H](C)[C@@H](O)[C@]1(C)O reading=64
chemical_structure=C[C@@H]1O[C@@H]1P(=O)(O)O reading=128
chemical_structure=CC[C@H]1OC(=O)[C@H](C)[C@@H](O[C@H]2C[C@@](C)(OC)[C@@H](O)[C@H](C)O2)[C@H](C)[C@@H](O[C@@H]2O[C@H](C)C[C@H](N(C)C)[C@H]2O)[C@](C)(OC)C[C@@H](C)C(=O)[C@H](C)[C@@H](O)[C@]1(C)O reading=16

Could you now look at the following compound, please?
// query Query (compound): `Cc1nnc(SCC2=C(C(=O)O)N3C(=O)[C@@H](NC(=O)Cn4cnnn4)[C@H]3SC2)s1` ; field requested: MIC
// result 16

Origin of the recorded values: ChEMBL document CHEMBL1255354
